biological target: T1, Wild type CD117 purified protein (human, UniProt P10721 26-520, limits assumed); experiment: monovalent KD, CD117 titrated (FIGS. 73A-73E)
T1 construct: Protein used in BLI/kinetics and cryo-EM; also called wt CD117; Wt CD117
T1 sequence (P10721 26-520 limits assumed): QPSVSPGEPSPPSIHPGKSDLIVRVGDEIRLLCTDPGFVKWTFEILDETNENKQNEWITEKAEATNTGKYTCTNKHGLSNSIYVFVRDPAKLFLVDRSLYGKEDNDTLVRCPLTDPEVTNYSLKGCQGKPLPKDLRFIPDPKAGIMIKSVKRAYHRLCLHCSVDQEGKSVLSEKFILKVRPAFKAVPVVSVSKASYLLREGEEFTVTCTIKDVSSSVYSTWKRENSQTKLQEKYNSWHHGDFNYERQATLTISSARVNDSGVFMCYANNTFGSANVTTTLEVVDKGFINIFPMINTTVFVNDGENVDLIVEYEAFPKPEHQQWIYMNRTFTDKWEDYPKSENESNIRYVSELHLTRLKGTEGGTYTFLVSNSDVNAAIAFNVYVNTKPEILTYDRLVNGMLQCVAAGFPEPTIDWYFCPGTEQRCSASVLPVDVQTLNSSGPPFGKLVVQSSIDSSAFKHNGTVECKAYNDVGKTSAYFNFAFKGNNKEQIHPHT
reportedEndpoint: koff (s⁻¹)
Enter your answer as a number in s⁻¹; do not include the unit.

{"binder": "ABTx205 (antibody, human IgG1, V domains shown) VH: EVQLVESGGGLVQPGRSLRLSCAASGFTFDDYAMHWVRQAPGKGLEWVSGISWNSGTIGYADSVKGRFTNSRDNAKNSLYLEMNSLRAEDTALYYCAKDSPPGYCSSASCYGAFDIWGQGTMVTVSS VL: DIVMTQSPSFLSASVGDRVTITCRASQGISSYLAWYQQKPGKAPKLLIYAASTLQNGVPSRFSGSGSGTDFTLTITSLQPEDFATYYCQQSYSTPYTFGQGTKLEIK", "reportedEndpoint": "koff", "measuredValue": 0.000117}
{"binder": "ABTx202 (antibody, human IgG1, V domains shown) VH: EVQLVESGGGLVQPGRSLRLSCAASGFTFDDYAMHWVRQAPGKGLEWVSGISWNSGTIGYADSVKGRFTSSRDNAKNSLYLEMNSLRAEDTALYYCAKDSPPGYCSSASCYGAFDIWGQGTMVTVSS VL: EIVMTQSPGTLSLSPGERATLSCRASQSVSSSYLAWYQQKPGQAPRLLIYGSSTRATGIPARFSGSGSGTEFALTISSLQSEDFAVYYCQQYNFWPYTFGQGTKVEIK", "reportedEndpoint": "koff", "measuredValue": 0.00014}

Per the record, ABTx203 (antibody, human IgG1, V domains shown) VH: EVQLVESGGGLVQPGRSLRLSCAASGFTFDDYAMHWVRQAPGKGLEWVSGISWNSGTIGYADSVKGRFTNSRDNAKNSLYLEMNSLRAEDTALYYCAKDWPSGFCSSAYCYGAFDIWGQGTMVTVSS VL: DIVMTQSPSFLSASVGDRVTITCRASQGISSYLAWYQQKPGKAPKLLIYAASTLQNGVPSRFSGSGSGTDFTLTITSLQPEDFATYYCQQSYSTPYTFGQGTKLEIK has koff of 0.000643
